- System: IGROV1 ovarian
- experiment: NCI-60 one-dose screen, 48 h (100 = growth as untreated, 0 = no growth, -100 = all killed)
- conditions: 10 µM
- Method: Growth inhibition of the IGROV1 human tumor cell line is measured as a screen for anti-cancer activity. Cells are grown in 96 well plates and exposed to the test compound for 48 hours. Compounds are tested at a single concentration, which is 10^-5 M for most compounds. The reported endpoint is percent growth (GI% or GIPRCNT), where numbers from 0 - 100% represent growth inhibition, and numbers from -100% - 0 represent cell death. For example, a value of 40 represents 60% growth inhibition. […]
This is part of a sample that, as a whole, favours compounds with a hit. Of some 83,000 tested, about 20% had one in any assay.
Lab note: anything with growth at or over 40% counts as fulfilled; the rest go in not fulfilled.

For orientation, consider the following solved cases.
{"compound": "CCCCCCCCCCSC(=N)N", "group_label": "fulfilled"}
{"compound": "N=S(c1ccccc1[N+](=O)[O-])c1ccccc1[N+](=O)[O-]", "group_label": "fulfilled"}
{"compound": "NNc1c2ccccc2nc2ccccc12", "group_label": "fulfilled"}
{"compound": "CCCC1CCC(=C2C(=O)CCC2=O)O1 (stereo not drawn)", "group_label": "fulfilled"}
{"compound": "O=C1C=CC(=CC=C2C=CN(CCCCCCCCCCCO)C=C2)C=C1", "group_label": "fulfilled"}
{"compound": "OCC1OC(n2cnc3c(=S)nc[nH]c32)C(O)C1O (stereo not drawn)", "group_label": "fulfilled"}
{"compound": "COc1ccc(CC(=O)c2ccc(O)cc2O)cc1", "group_label": "fulfilled"}
{"compound": "CC[N+](CC)=c1ccc2nc3c(cc(N)c4ccccc43)oc-2c1", "group_label": "not fulfilled"}

Q) For this compound, is measured growth 40% or higher? `CCCCCCCCCCCC[N+](C)(C)Cc1ccccc1`
A) not fulfilled

Q) For this compound, is measured growth 40% or higher? `O=C1NC(=O)c2cc([N+](=O)[O-])ccc21`
A) fulfilled

Q) For this compound, is measured growth 40% or higher? CO[C@H](C(=O)[C@@H](O)[C@@H](C)O)[C@@H]1Cc2cc3cc(OC4CC(OC5CC(O)C(O)C(C)O5)C(O)C(C)O4)c(C)c(O)c3c(O)c2C(=O)[C@H]1OC1CC(OC2CC(OC3CC(C)(O)C(O)C(C)O3)C(O)C(C)O2)C(O)C(C)O1 (stereo partly drawn)
A) not fulfilled

Q) For this compound, is measured growth 40% or higher? OC(CN1CCCC2CCCCC21)c1cc2ccccc2c2ccccc12 (stereo not drawn)
A) fulfilled

Q) For this compound, is measured growth 40% or higher? `NC1=C(Cl)C(=O)c2ccccc2C1=O`
A) fulfilled

Q) For this compound, is measured growth 40% or higher? CCCCCC(C)c1ccc(O)c(C)c1 (stereo not drawn)
A) fulfilled

Q) For this compound, is measured growth 40% or higher? Cc1cc(NS(=O)(=O)c2ccc(N=Nc3cc(N=Nc4ccc(S(=O)(=O)Nc5cc(C)nc(C)n5)cc4)c4c(NC(=O)C(Cl)Cl)cccc4c3OC(=O)C(Cl)Cl)cc2)nc(C)n1 (tested in a mixture with another compound)
A) fulfilled

Q) For this compound, is measured growth 40% or higher? COc1cccc2c1C(=O)c1c(O)c3c(c(O)c1C2=O)C[C@@](O)(C(=O)CO)C[C@@H]3OC1CC(N)C(O)C(C)O1 (stereo partly drawn)
A) not fulfilled

Q) For this compound, is measured growth 40% or higher? `CCN1/C(=C/C=C/C=C/c2sc3ccccc3[n+]2CC)Sc2ccccc21`
A) not fulfilled

Entry source: PubChem BioAssay (NCI)
